Each entry below lists one item and its recorded MTD value.
experiment: in vivo
conditions: mouse, iv

* CNCC1CCC(N)C(OC2C(N)CC(O)C(NC)C2O)O1 (stereo not drawn) [3-O-Demethylistamycin BO] | 160 mg/kg
* CNCC1CCC(N)C(OC2C(N)CC(O)C(N(C)C(=O)CN)C2O)O1 (stereo not drawn) [3-O-Demethylistamycin B] | 160 mg/kg

--- query ---
[in] I would be grateful if you could share the reported MTD for CNCC1CCC(N)C(OC2C(N)CC(O)C(N(C)C(=O)CNC=N)C2O)O1 (stereo not drawn) [3-O-Demethyl-2"-N-formimidoylistamycin B] .
[out] 160 mg/kg

Data provenance: patent US4499083A
